src = patent US20240067657A1

Here we list compounds with their recorded IC50 when tested on varicella zoster virus DNA polymerase (Varicella-zoster virus, UniProt P09252).
Sequence (P09252 whole entry): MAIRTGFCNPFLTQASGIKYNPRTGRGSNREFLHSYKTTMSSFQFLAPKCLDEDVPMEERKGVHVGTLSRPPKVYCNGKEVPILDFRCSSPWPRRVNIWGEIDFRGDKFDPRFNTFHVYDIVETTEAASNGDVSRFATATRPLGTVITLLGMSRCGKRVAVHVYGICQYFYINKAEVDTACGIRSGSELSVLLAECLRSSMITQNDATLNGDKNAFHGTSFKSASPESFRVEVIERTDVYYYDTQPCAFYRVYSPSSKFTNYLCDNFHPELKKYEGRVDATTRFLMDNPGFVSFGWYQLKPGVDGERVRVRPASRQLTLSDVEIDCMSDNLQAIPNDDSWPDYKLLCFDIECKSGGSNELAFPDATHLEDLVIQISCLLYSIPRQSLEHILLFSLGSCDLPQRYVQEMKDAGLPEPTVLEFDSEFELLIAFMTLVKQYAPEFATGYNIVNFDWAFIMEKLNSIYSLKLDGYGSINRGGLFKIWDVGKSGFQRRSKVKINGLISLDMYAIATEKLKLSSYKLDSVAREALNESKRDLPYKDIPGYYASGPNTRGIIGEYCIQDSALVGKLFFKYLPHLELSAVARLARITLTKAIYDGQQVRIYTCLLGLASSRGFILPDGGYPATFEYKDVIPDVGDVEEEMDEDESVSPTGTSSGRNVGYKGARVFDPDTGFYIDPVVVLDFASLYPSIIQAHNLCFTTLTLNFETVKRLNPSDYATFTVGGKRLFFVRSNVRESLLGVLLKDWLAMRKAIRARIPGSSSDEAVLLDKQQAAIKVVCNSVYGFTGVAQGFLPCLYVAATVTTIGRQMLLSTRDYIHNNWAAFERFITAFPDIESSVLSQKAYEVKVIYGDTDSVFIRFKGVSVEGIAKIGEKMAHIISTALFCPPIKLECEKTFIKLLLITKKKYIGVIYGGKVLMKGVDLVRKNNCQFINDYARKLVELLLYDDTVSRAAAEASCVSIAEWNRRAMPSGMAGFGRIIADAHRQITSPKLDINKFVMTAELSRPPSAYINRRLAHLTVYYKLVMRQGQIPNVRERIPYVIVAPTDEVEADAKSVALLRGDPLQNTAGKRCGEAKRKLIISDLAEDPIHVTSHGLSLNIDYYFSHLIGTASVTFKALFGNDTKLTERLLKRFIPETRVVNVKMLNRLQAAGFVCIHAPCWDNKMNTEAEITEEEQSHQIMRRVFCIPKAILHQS
Measure name: IC50 (nM)

{"Compound": "O=C(NCc1ccc(Cl)cc1)c1cc(O[C@H]2CCN3C(=O)OC[C@@H]3C2)c(CN2CCOCC2)cn1", "Tgt": "varicella zoster virus DNA polymerase (Varicella-zoster virus, UniProt P09252)", "Meas value": 31.7}

I. CC(C)(C)n1cc(-c2cnc(C(=O)NCc3ccc(Cl)cc3)cc2O[C@H]2CCN3C(=O)OC[C@@H]3C2)cn1 (racemic)
II. Cc1c[n+]([O-])c(C(=O)NCc2ccc(Cl)cc2)cc1O[C@H]1CCN2C(=O)OC[C@@H]2C1
III. O=C(NCc1ccc(Cl)cc1)c1cc(O[C@H]2CCN3C(=O)OCC[C@@H]3C2)c(-c2cnn(C(F)F)c2)cn1 (single isomer, unassigned)
Q: # ascending order, key=IC50 Please write the labels in the order that was asked for.
A: III, II, I
(III: 2.42 nM, II: 43.4 nM, I: 69.6 nM)

---

system: HCMV Strain AD169 in MRC-5 cells; experiment: Viral qPCR assay HCMV (V0/V1, V2/V3), EC50; assay type: cell-based; conditions: Human betaherpesvirus 5, AD169, MRC5, viral qPCR assay of Example 191; read-out: HCMV Cell (EC50)
// reported pEC50 per item
For clarity, pEC50 is expressed as the negative log10 of concentration in mol/L.

{"Molecule": "O=C(NCc1ccc(Cl)cc1)c1cc(O[C@H]2CCN3C(=O)OC[C@@H]3C2)c(/C=C/CO)cn1 [Compound 155]", "Meas value": 6.69}
{"Molecule": "CC(=O)N1CCC(Oc2cc(C(=O)NCc3ccc(Cl)cc3)ncc2-c2ccn(C)n2)CC1 [Compound 61]", "Meas value": 6.31}
{"Molecule": "O=C(NCc1ccc(Cl)c(F)c1F)c1cc(O[C@H]2CCN3C(=O)OC[C@@H]3C2)c(-c2cnn(C(F)F)c2)cn1 [Compound 92]", "Meas value": 6.64}
{"Molecule": "O=C(NCc1ccc(Cl)cc1)c1cc(O[C@H]2CCN3C(=O)OC[C@@H]3C2)c(CN2CCCOCC2)cn1 [Compound 138]", "Meas value": 6.53}
{"Molecule": "C[C@@H]1CN(c2cnc(C(=O)NCc3ccc(Cl)cc3)cc2O[C@H]2CCN3C(=O)OC[C@@H]3C2)C[C@H](C)[C@]1(C)O [Compound 124]", "Meas value": 5.90}
{"Molecule": "CCc1noc(-c2cnc(C(=O)NCc3ccc(Cl)cc3)cc2O[C@H]2CCN3C(=O)OC[C@@H]3C2)n1 [Compound 149]", "Meas value": 6.91}

Q: # pEC50 lookup, item Cn1ccc(-c2cnc(C(=O)NCc3ccc(Cl)cc3)cc2O[C@H]2CCN3C(=O)OC[C@@H]3C2)n1 [Compound 30]
A: 6.94

Q: # pEC50 lookup, item O=C(NCc1ccc(Cl)cc1)c1cc(O[C@H]2CCN3C(=O)OC[C@@H]3C2)c(CN2CCC3OCCC32)cn1 (mixture of isomers) [Compound 142]
A: 6.61

Q: # pEC50 lookup, item O=C(NCc1ccc(Cl)cc1)c1cc(O[C@H]2CCN3C(=O)OC[C@@H]3C2)c(-c2cc[nH]n2)cn1 [Compound 18]
A: 6.92

Q: # pEC50 lookup, item O=C(NCc1ccc(Cl)cc1)c1cc(O[C@H]2CCN3C(=O)OC[C@@H]3C2)c(-c2ccn(CC(F)(F)F)n2)cn1 [Compound 14]
A: 6.25

Q: # pEC50 lookup, item O=C(NCc1ccc(Cl)cc1)c1cc(O[C@H]2CCN3C(=O)OC[C@@H]3C2)c(-c2cnn(CC(F)(F)F)c2)cn1 [Compound 17]
A: 6.42

Q: # pEC50 lookup, item O=C(NCc1ccc(Cl)cc1)c1cc(O[C@H]2CCN3C(=O)OC[C@@H]3C2)c(OCC(F)(F)F)cn1 [Compound 126]
A: 6.24

Q: # pEC50 lookup, item CC(=O)N1CCC(Oc2cc(C(=O)NCc3ccc(Cl)cc3)ncc2-c2cncs2)CC1 [Compound 51]
A: 6.43

Q: # pEC50 lookup, item CC(=O)N1CCC(Oc2cc(C(=O)NCc3ccc(Cl)cc3)ncc2-c2ccn(CS(C)(=O)=O)n2)CC1 [Compound 56]
A: 6.16
